- MEASURED TARGET: T1, Bovine Alpha-s1-casein (SEQ ID NO: 1)
- T1 chain: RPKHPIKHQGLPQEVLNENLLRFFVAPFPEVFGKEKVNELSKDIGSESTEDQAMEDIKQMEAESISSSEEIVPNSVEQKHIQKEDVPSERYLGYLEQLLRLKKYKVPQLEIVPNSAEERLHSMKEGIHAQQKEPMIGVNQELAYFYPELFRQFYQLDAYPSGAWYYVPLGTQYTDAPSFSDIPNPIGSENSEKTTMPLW
REPORTED METRIC: phosphorylation at S103, MS grade, in vitro kinase reaction

PrkC (Bacillus subtilis) (SEQ ID NO: 8) (protein) MSGPVPSRARVYTDVNTHRPREYWDYESHVVEWGNQDDYQLVRKLGRGKYSEVFEAINITNNEKVVVKILKPVKKKKIKREIKILENLRGGPNIITLADIVKDPVSRTPALVFEHVNNTDFKQLYQTLTDYDIRFYMYEILKALDYCHSMGIMHRDVKPHNVMIDHEHRKLRLIDWGLAEFYHPGQEYNVRVASRYFKGPELLVDYQMYDYSLDMWSLGCMLASMIFRKEPFFHGHDNYDQLVRIAKVLGTEDLYDYIDKYNIELDPRFNDILGRHSRKRWERFVHSENQHLVSPEALDFLDKLLRYDHQSRLTAREAMEHPYFYTVVKDQARMGSSSMPGGSTPVSSANMMSGISSVPTPSPLGPLAGSPVIAAANPLGMPVPAAAGAQ | +
